Value source: PubChem BioAssay (Tox21)

experiment: G protein-coupled receptor (GPCR) small molecule agonists, calcium flux assay: HEK293 wild type cell line counter screen (AID 1920065); conditions: HEK293 WT calcium flux, fluorescence, agonist mode; series mostly up to 57.6 µM
Calls of active or inactive are those of the source. Calls come from the whole dose curve.
Assay metric: outcome

O=S(=O)(O)NC1CCCCC1
inactive
c1ccc2c(c1)c1cccc3ccc4cccc2c4c31
inactive
CCCCCCCCCCCCCC(=O)O
inactive
c1ccc2[nH]ccc2c1
inactive
C[C@]12CC[C@@H]3c4ccc(O)cc4CC[C@H]3[C@@H]1CC[C@@H]2O
inactive

Fill in outcome for record O=C(O)CCCCC1CCSS1 (stereo not drawn)
inactive

Indicate its recorded outcome; the molecule in question is Brc1cc(Oc2cc(Br)c(Br)c(Br)c2Br)c(Br)c(Br)c1Br
inactive

Look up and state reported outcome for CCCCCCCC/C=C\CCCCCCCC(=O)O
inactive

For Cc1ccc(S(=O)(=O)Oc2ccc(N=Nc3ccc(-c4ccc(N=Nc5c(O)ccc6cc(S(=O)(=O)O)cc(S(=O)(=O)O)c56)c(C)c4)cc3C)cc2)cc1 , write its outcome.
inactive
